- target_under_test: Bcl-2-like protein 1 (Homo sapiens) (UniProt Q07817)
- Sequence (Q07817 whole entry, looked up): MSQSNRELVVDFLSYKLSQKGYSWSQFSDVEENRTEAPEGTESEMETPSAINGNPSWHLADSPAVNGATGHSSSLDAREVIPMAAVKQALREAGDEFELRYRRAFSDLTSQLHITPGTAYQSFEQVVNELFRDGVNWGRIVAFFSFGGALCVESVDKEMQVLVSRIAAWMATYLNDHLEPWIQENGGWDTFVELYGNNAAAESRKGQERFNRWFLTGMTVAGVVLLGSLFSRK
- test_description: inhibitors of human Bcl-xL, primary screen, biochemical, fluorescence polarization, HTS (AID 2129);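 also: 0% = DMSO wells and 100% = unlabeled Bim-BH3 peptide competitor; inhibitors lower millipolarization by displacing the labeled peptide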
- condition_label: GST-Bcl-xL / FITC-Bim BH3 peptide fluorescence polarization; at 10.9 µM; stronger effect = higher value
The campaign covered roughly 320,000 compounds. About 2,200 (0.69%) were called active. This excerpt belongs to a sample that is enriched for actives.
assay_endpoint: inhibition (%)
Numbers only, in %.

Below are worked cases with known answers.
1) Cc1ccc(N(C)C(=O)Oc2cccc3ccc(C)nc23)cc1 : 0.48
2) NCCc1c[nH]c2ccc(O)cc12 : 4.75
3) CC(=NC1CCN(Cc2ccccc2)CC1)c1c(O)n(C)c(=O)n(C)c1=O : 14.7

Take each entry in turn and give its inhibition.
1. Cc1ccccc1N1C(=O)NC(=O)/C(=C\c2cc(C)n(C)c2C)C1=O
2. Cc1cccc(NC(=O)OC2CN3CCC2CC3)c1 (configuration not stated)
3. COc1ccc(N2C(=O)/C(=C/c3ccco3)C(=O)NC2=S)cc1

**Result**
1: 2.98; 2: -2.32; 3: 32.5

====

- target_under_test: Bcl-2-like protein 1 (Homo sapiens)
- test_description: inhibitors of human Bcl-xL, primary screen, biochemical, fluorescence polarization, HTS (AID 2129);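 also: 0% = DMSO wells and 100% = unlabeled Bim-BH3 peptide competitor; inhibitors lower millipolarization by displacing the labeled peptide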
- condition_label: GST-Bcl-xL / FITC-Bim BH3 peptide fluorescence polarization; at 10.9 µM; stronger effect = higher value
In all, about 320,000 compounds went through this assay and about 2,200 (0.69%) were called active. This excerpt belongs to a sample that is enriched for actives.
Assign inhibition to each entry below.
Numbers only, in %.

Examples with answers:
1) Cc1ccc(-n2c(O)c(C=NCC3CCCO3)c(=O)[nH]c2=O)c(C)c1 (stereo unspecified) : -2.2
2) Cc1cc(/C=C2/C(=O)NC(=O)N(Cc3ccco3)C2=O)c(C)n1-c1ccc(C(=O)O)cc1 : -1.1
3) COc1ccc(CN2C(=O)NC(=O)/C(=C\c3ccc(OC)c(OC)c3OC)C2=O)cc1 : -7.16
4) N#CC1=C(N)Oc2c(c(=O)oc3ccccc23)C1c1ccccc1OC(=O)c1cccs1 (stereo unspecified) : 3.02
5) CCNc1nc2[nH]c(=O)c3c(c2s1)OC(N)=C(C#N)C3c1cccs1 (stereo unspecified) : 30.4

**Query** Look at this molecule and give its reported inhibition. "COc1cccc(N2C(=O)NC(=O)/C(=C\c3cn(C)c4ccccc34)C2=O)c1"
**Result** 36.2
